# TARGET: system Xc^− (Homo sapiens)
# MEASUREMENT_DESCRIPTION: Cystine-induced glutamate release assay
# Assay type: cell-based
# Parameters: endogenous in cells; host or cells: H4 cells
# CONDITION_SUMMARY: H4 cells, sodium-free HEPES buffer, 50 μM L-Cystine, 2 hours, Amplex Red glutamate readout; read-out: pIC50 Cystine-induced glutamate release assay (converted)
QUANTITY_MEASURED: IC50

Reference set (3 entries):
{"MOLECULE": "Cc1cc2c(c(F)n1)-c1ccnn1C(C)C(=O)N2CC(=O)Nc1ccc(C(F)F)cc1 (single isomer, unassigned) [#221]", "IC50": "39.8 to 100 nM"}
{"MOLECULE": "Cc1cc2c(n(C)c1=O)-c1cccnc1C(C)C(=O)N2CC(=O)Nc1ccc(C(F)(F)F)cc1 (centres unmarked) [#119]", "IC50": "15.8 to 39.8 nM"}
{"MOLECULE": "Cc1cc2c(c(=O)n1C)-c1ccccc1C(C)C(=O)N2CC(=O)Nc1ccc(Cl)c(F)c1 (single isomer, unassigned) [#219]", "IC50": "< 15.8 nM"}

Query block: What value of measured IC50 is listed for Cc1cc2c(c(F)n1)-c1cccnc1[C@@H](F)C(=O)N2CC(=O)Nc1ccc(C(F)(F)F)cc1 (single isomer, unassigned) [#195] ?
Result block: < 15.8 nM

Query block: What value of measured IC50 is listed for Cc1cc2c(c(F)n1)-c1cccc(=O)n1CC(=O)N2CC(=O)Nc1ccc(C(F)(F)F)cc1 [#102] ?
Result block: 100 to 501 nM

Query block: What value of measured IC50 is listed for CC1C(=O)N(CC(=O)Nc2ccc(C(F)F)cc2)c2cc(OC(F)F)nc(Cl)c2-c2cccnc21 (single isomer, unassigned) [#416] ?
Result block: 15.8 to 39.8 nM

Query block: What value of measured IC50 is listed for Cc1cc2c(n(C)c1=O)-c1ccc(F)cc1C(C)C(=O)N2CC(=O)Nc1ccc(Cl)c(F)c1 (centres unmarked) [#354] ?
Result block: 15.8 to 39.8 nM

###

# TARGET: system Xc^− (Homo sapiens)
# Sequence (Q9UPY5 1-501): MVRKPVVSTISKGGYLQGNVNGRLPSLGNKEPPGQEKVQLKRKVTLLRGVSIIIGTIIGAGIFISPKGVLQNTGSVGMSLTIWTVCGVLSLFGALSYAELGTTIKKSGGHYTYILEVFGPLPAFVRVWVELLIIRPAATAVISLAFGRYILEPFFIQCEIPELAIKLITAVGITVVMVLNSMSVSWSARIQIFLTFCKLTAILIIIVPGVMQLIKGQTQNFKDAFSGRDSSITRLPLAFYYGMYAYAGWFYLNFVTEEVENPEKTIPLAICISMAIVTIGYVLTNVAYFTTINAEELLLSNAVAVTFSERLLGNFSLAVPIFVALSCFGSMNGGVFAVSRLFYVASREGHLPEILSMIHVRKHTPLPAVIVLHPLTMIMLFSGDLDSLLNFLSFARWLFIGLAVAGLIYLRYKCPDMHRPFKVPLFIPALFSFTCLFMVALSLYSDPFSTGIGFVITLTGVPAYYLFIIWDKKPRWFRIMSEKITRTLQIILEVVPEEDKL
# Sequence (P08195 1-529 partner): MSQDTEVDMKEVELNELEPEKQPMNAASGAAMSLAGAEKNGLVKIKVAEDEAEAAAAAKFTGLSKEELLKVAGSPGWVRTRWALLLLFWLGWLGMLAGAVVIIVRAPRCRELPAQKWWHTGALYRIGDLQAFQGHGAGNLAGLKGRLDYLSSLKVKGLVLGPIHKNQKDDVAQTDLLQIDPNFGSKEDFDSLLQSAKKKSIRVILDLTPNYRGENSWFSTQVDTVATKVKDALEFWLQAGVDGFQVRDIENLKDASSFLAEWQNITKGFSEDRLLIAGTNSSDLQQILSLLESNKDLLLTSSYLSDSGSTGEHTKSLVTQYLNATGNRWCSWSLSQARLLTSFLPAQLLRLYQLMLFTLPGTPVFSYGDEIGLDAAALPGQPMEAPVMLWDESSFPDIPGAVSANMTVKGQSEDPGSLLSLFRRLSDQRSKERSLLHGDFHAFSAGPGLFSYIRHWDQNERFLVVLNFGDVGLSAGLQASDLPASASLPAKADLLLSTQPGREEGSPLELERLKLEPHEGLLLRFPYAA
# MEASUREMENT_DESCRIPTION: [^14C]L-Cystine uptake assay
# Format: cell-based
# Design: endogenous in cells; host or cells: H4 cells
# CONDITION_SUMMARY: H4 cells, sodium-free HEPES buffer, 0.5 μM L-[14C]Cystine and 4.5 μM L-Cystine, 1 hour at 37° C.; read-out: pIC50 [^14C] L-Cystine uptake assay (converted)
QUANTITY_MEASURED: IC50

Reference set (7 entries):
{"COMPOUND": "COc1cc2c(cn1)-c1cc(F)cnc1C(C)C(=O)N2CC(=O)Nc1ccc(Cl)c(F)c1 (single isomer, unassigned) [#410]", "TEST_RESULT": "15.8 to 39.8 nM"}
{"COMPOUND": "Cc1cc2c(c(F)n1)-c1cccnc1[C@@H](C)C(=O)N2CC(=O)Nc1ccc(Cl)c(F)c1 (single isomer, unassigned) [#200]", "TEST_RESULT": "< 15.8 nM"}
{"COMPOUND": "Cc1cc2c(c(F)n1)-c1c[nH]nc1CC(=O)N2CC(=O)Nc1ccc(C(F)(F)F)cc1 [#123]", "TEST_RESULT": "39.8 to 100 nM"}
{"COMPOUND": "Cc1cc2c(c(F)n1)-c1cccnc1[C@@H](C)C(=O)N2CC(=O)Nc1ccc(OC(F)F)cc1 [#139]", "TEST_RESULT": "15.8 to 39.8 nM"}
{"COMPOUND": "O=C(CN1C(=O)Cc2ncccc2-c2c(F)cncc21)Nc1ccc(C(F)(F)F)cc1 [#78]", "TEST_RESULT": "100 to 501 nM"}
{"COMPOUND": "Cc1cc2c(cc1C)N(CC(=O)Nc1ccc(C(F)(F)F)cc1)C(=O)Cc1ncccc1-2 [#23]", "TEST_RESULT": "15.8 to 39.8 nM"}
{"COMPOUND": "Cc1nc(C#N)cc2c1-c1cccnc1CC(=O)N2CC(=O)Nc1ccc(C(F)(F)F)cc1 [#167]", "TEST_RESULT": "15.8 to 39.8 nM"}

Query block: What value of measured IC50 is listed for Cc1cc2c(c(O)n1)-c1ccccc1CC(=O)N2CC(=O)Nc1ccc(C(F)(F)F)cc1 [#55] ?
Result block: 100 to 501 nM

###

# TARGET: system Xc^− (Homo sapiens)
# MEASUREMENT_DESCRIPTION: [^14C]L-Cystine uptake assay
# Type: cell-based
# Set-up: endogenous in cells; host or cells: H4 cells
# CONDITION_SUMMARY: H4 cells, sodium-free HEPES buffer, 0.5 μM L-[14C]Cystine and 4.5 μM L-Cystine, 1 hour at 37° C.; read-out: pIC50 [^14C] L-Cystine uptake assay (converted)
This section presents compounds with their documented IC50 values.

{"COMPOUND": "Cc1cc2c(c(=O)[nH]1)-c1ccccc1[C@@H](C)C(=O)N2CC(=O)Nc1ccc(C(F)(F)F)cc1 (single isomer, unassigned) [#205]", "QUANTITY_MEASURED": "IC50", "TEST_RESULT": "< 15.8 nM"}
{"COMPOUND": "Cc1cc2c(c(Cl)n1)-c1cncnc1C(C)C(=O)N2CC(=O)Nc1ccc(C(F)(F)F)cc1 (stereo not shown) [#163]", "QUANTITY_MEASURED": "IC50", "TEST_RESULT": "15.8 to 39.8 nM"}

Query block: What value of measured IC50 is listed for CC1C(=O)N(CC(=O)Nc2ccc(Cl)c(F)c2)c2ccnc(F)c2-c2cc(F)cnc21 (single isomer, unassigned) [#419] ?
Result block: < 15.8 nM

Query block: What value of measured IC50 is listed for COc1cc2c(c(OC)n1)-c1cccnc1CC(=O)N2CC(=O)Nc1ccc(C(F)(F)F)cc1 [#108] ?
Result block: < 15.8 nM

Query block: What value of measured IC50 is listed for Cc1cc2c(c(F)n1)-c1cccnc1[C@@H](C)C(=O)N2CC(=O)Nc1ccc(F)cc1 [#233] ?
Result block: 15.8 to 39.8 nM

###

# TARGET: system Xc^− (Homo sapiens, UniProt Q9UPY5)
# MEASUREMENT_DESCRIPTION: Cystine-induced glutamate release assay
# Format: cell-based
# Parameters: endogenous in cells; host or cells: H4 cells
# CONDITION_SUMMARY: H4 cells, sodium-free HEPES buffer, 50 μM L-Cystine, 2 hours, Amplex Red glutamate readout; read-out: pIC50 Cystine-induced glutamate release assay (converted)
This section presents molecules with their documented IC50 values.

Reference set (6 entries):
{"MOLECULE": "Cc1cc2c(c(Cl)n1)-c1cncnc1[C@@H](C)C(=O)N2CC(=O)Nc1ccc(C(F)(F)F)cc1 (single isomer, unassigned) [#207]", "IC50": "15.8 to 39.8 nM"}
{"MOLECULE": "COc1nc2c(cc1CO)N(CC(=O)Nc1ccc(Cl)c(F)c1)C(=O)C(C)c1ccccc1-2 (stereo not shown) [#399]", "IC50": "39.8 to 100 nM"}
{"MOLECULE": "COc1nc(C)cc2c1-c1cncnc1C(C)C(=O)N2CC(=O)Nc1ccc(C(F)(F)F)cc1 (stereo not shown) [#157]", "IC50": "15.8 to 39.8 nM"}
{"MOLECULE": "Cc1cc2c(c(F)n1)-c1cccnc1C(C)C(=O)N2CC(=O)Nc1ccc2c(cnn2C)c1 (stereo not shown) [#129]", "IC50": "39.8 to 100 nM"}
{"MOLECULE": "CNc1cc2c(c(Cl)n1)-c1cccnc1CC(=O)N2CC(=O)Nc1ccc(C(F)(F)F)cc1 [#169]", "IC50": "100 to 501 nM"}
{"MOLECULE": "Cc1cc2c(c(F)n1)-c1ccc(F)cc1C(O)C(=O)N2CC(=O)Nc1ccc(C(F)F)cc1 (single isomer, unassigned) [#380]", "IC50": "< 15.8 nM"}

Here is the next item to consider.
Query block: What value of measured IC50 is listed for Cc1cc2c(c(C3CC3)n1)-c1ccccc1CC(=O)N2CC(=O)Nc1ccc(C(F)(F)F)cc1 [#73] ?
Result block: 100 to 501 nM
